Molecular target: human TAS2R4 (Homo sapiens)
Construct: expressed in transfected cells; host or cells: HEK293T-Gα16gust44
Test: Calcium imaging assay (FLIPR), HEK293T-Gα16gust44 cells transfected with human TAS2R4; also: test concentration or dose not given here
Assay type: cell-based
Details: Time (s) 173.547
endpoint name: RLU, fluorescence trace (RLU)
Numeric answer only, unit RLU assumed.

Per the reported human TAS2R4 (Homo sapiens) data, C[C@H](CCC(=O)O)[C@H]1CC[C@H]2[C@@H]3[C@@H](O)C[C@@H]4C[C@H](O)CC[C@]4(C)[C@H]3CC[C@]12C has RLU, fluorescence trace of 178.999

RLU, fluorescence trace on human TAS2R4 (Homo sapiens) for C[C@H](CCC(=O)O)[C@H]1CC[C@H]2[C@@H]3[C@H](O)C[C@@H]4C[C@H](O)CC[C@]4(C)[C@H]3C[C@H](O)[C@]12C is 264.873

Record C[C@H](CCC(=O)NCCS(=O)(=O)O)[C@H]1CC[C@H]2[C@@H]3[C@H](O)C[C@@H]4C[C@H](O)CC[C@]4(C)[C@H]3C[C@H](O)[C@]12C ; system human TAS2R4 (Homo sapiens); RLU, fluorescence trace = 386.716

I looked up C[C@H](CCC(=O)NCCS(=O)(=O)O)[C@H]1CC[C@H]2[C@@H]3CC[C@@H]4C[C@H](O)CC[C@]4(C)[C@H]3CC[C@]12C and its RLU, fluorescence trace for human TAS2R4 (Homo sapiens) was 204.036

// molecule C[C@H](CCC(=O)O)[C@H]1CC[C@H]2[C@@H]3CC[C@@H]4C[C@H](O)CC[C@]4(C)[C@H]3C[C@H](O)[C@]12C , assay human TAS2R4 (Homo sapiens), RLU, fluorescence trace value: 351.387

Assay human TAS2R4 (Homo sapiens), sample C[C@H](CCC(=O)NCC(=O)O)[C@H]1CC[C@H]2[C@@H]3[C@H](O)C[C@@H]4C[C@H](O)CC[C@]4(C)[C@H]3C[C@H](O)[C@]12C , RLU, fluorescence trace read: 281.168

---

Target: human TAS2R4 (Homo sapiens, UniProt Q9NYW5)
Construct: expressed in transfected cells; host or cells: HEK293T-Gα16gust44
Sequence (Q9NYW5 whole entry): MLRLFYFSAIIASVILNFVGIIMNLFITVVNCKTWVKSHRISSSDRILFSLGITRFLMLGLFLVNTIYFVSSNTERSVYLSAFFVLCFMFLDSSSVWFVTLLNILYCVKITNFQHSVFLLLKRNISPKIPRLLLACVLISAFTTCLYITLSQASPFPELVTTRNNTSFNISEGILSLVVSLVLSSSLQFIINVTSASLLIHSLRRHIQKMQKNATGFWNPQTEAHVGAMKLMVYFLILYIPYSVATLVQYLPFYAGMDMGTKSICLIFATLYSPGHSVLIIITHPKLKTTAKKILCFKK
Assay: Calcium imaging assay (FLIPR), HEK293T-Gα16gust44 cells transfected with human TAS2R4; also: test concentration or dose not given here
Assay type: cell-based
Conditions: Time (s) 72.781 (TCA, TLCA: 72.782)
Provide the recorded RLU, fluorescence trace for the entries that follow.
Numeric answer only, unit RLU assumed.

Memo: C[C@H](CCC(=O)NCCS(=O)(=O)O)[C@H]1CC[C@H]2[C@@H]3CC[C@@H]4C[C@H](O)CC[C@]4(C)[C@H]3CC[C@]12C , reported RLU, fluorescence trace: 284.878

So, C[C@H](CCC(=O)NCC(=O)O)[C@H]1CC[C@H]2[C@@H]3[C@H](O)C[C@@H]4C[C@H](O)CC[C@]4(C)[C@H]3C[C@H](O)[C@]12C ? Its RLU, fluorescence trace was 888.719

Short answer for C[C@H](CCC(=O)NCCS(=O)(=O)O)[C@H]1CC[C@H]2[C@@H]3[C@H](O)C[C@@H]4C[C@H](O)CC[C@]4(C)[C@H]3C[C@H](O)[C@]12C : RLU, fluorescence trace was 646.123

---

Task for the reader: assign each of the following compounds its reported RLU.
Target: mouse Tas2r144 (Mus musculus, UniProt Q7TQB8)
Construct: expressed in transfected cells; host or cells: HEK293T-Gα16gust44
Sequence (Q7TQB8 whole entry): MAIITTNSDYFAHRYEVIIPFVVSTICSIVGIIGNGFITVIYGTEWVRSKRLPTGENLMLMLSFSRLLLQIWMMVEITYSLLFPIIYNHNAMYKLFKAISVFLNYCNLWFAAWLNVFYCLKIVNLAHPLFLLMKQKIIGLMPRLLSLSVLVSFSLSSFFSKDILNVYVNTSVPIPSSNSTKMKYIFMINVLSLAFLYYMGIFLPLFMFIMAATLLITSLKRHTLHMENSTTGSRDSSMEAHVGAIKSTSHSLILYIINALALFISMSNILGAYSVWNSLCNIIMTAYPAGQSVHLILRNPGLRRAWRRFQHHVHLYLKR
Experiment: Calcium imaging assay (FLIPR), HEK293T-Gα16gust44 cells transfected with mouse Tas2r144
Format: cell-based
Conditions: Time 56.781 s
Protocol: This set of bile acids was chosen because of their commercial availability in high purities, their diversity within the class of bile acids and their previous detection and quantitation in human blood. Stock solutions were prepared in DMSO. […] Measured data were negative control corrected by subtracting the signal of the mock-transfected cells and exported to Microsoft Excel using the FLIPR software ScreenWorks 4.2. […]
All answers are understood in RLU, so give the number only.

Item: C[C@H](CCC(=O)O)[C@H]1CC[C@H]2[C@@H]3[C@H](O)C[C@@H]4C[C@H](O)CC[C@]4(C)[C@H]3C[C@H](O)[C@]12C [Cholic Acid, cholic acid] | System: mouse Tas2r144 (Mus musculus, UniProt Q7TQB8) | RLU: 655.573

GET /values?item= C[C@H](CCC(=O)NCCS(=O)(=O)O)[C@H]1CC[C@H]2[C@@H]3CC[C@@H]4C[C@H](O)CC[C@]4(C)[C@H]3CC[C@]12C [Taurolithocholic Acid, taurolithocholic acid] &system= mouse Tas2r144 (Mus musculus, UniProt Q7TQB8) returns RLU: 360.867

mouse Tas2r144 (Mus musculus, UniProt Q7TQB8) RLU of C[C@H](CCC(=O)NCCS(=O)(=O)O)[C@H]1CC[C@H]2[C@@H]3[C@H](O)C[C@@H]4C[C@H](O)CC[C@]4(C)[C@H]3C[C@H](O)[C@]12C [Taurocholic Acid, taurocholic acid] is 552.298

Considering C[C@H](CCC(=O)NCC(=O)O)[C@H]1CC[C@H]2[C@@H]3[C@H](O)C[C@@H]4C[C@H](O)CC[C@]4(C)[C@H]3C[C@H](O)[C@]12C [Glycocholic Acid, glycocholic acid] , its RLU with mouse Tas2r144 (Mus musculus, UniProt Q7TQB8) was recorded as 419.562

---

Target: mouse Tas2r144 (Mus musculus, UniProt Q7TQB8)
Construct: expressed in transfected cells; host or cells: HEK293T-Gα16gust44
Test: Calcium imaging assay (FLIPR), HEK293T-Gα16gust44 cells transfected with mouse Tas2r144
Assay type: cell-based
Conditions: Time 52.781 s
Experimental: This set of bile acids was chosen because of their commercial availability in high purities, their diversity within the class of bile acids and their previous detection and quantitation in human blood. Stock solutions were prepared in DMSO. […] Measured data were negative control corrected by subtracting the signal of the mock-transfected cells and exported to Microsoft Excel using the FLIPR software ScreenWorks 4.2. […]
Exercise: for every item that follows, state its recorded RLU.
Lab book: enter the figure in RLU, no units written.

For the molecule C[C@H](CCC(=O)O)[C@H]1CC[C@H]2[C@@H]3[C@H](O)C[C@@H]4C[C@H](O)CC[C@]4(C)[C@H]3C[C@H](O)[C@]12C , the measured RLU on mouse Tas2r144 (Mus musculus, UniProt Q7TQB8) was 632.385

Reported mouse Tas2r144 (Mus musculus, UniProt Q7TQB8) RLU for item C[C@H](CCC(=O)NCCS(=O)(=O)O)[C@H]1CC[C@H]2[C@@H]3[C@H](O)C[C@@H]4C[C@H](O)CC[C@]4(C)[C@H]3C[C@H](O)[C@]12C was 535.446

Per the reported mouse Tas2r144 (Mus musculus, UniProt Q7TQB8) data, C[C@H](CCC(=O)NCCS(=O)(=O)O)[C@H]1CC[C@H]2[C@@H]3CC[C@@H]4C[C@H](O)CC[C@]4(C)[C@H]3CC[C@]12C has RLU of 372.318

Item C[C@H](CCC(=O)NCC(=O)O)[C@H]1CC[C@H]2[C@@H]3[C@H](O)C[C@@H]4C[C@H](O)CC[C@]4(C)[C@H]3C[C@H](O)[C@]12C was tested on mouse Tas2r144 (Mus musculus, UniProt Q7TQB8); the reported RLU is 432.603

---

Target: human TAS2R14 (Homo sapiens, UniProt Q9NYV8)
Construct: expressed in transfected cells; host or cells: HEK293T-Gα16gust44
Sequence (Q9NYV8 whole entry): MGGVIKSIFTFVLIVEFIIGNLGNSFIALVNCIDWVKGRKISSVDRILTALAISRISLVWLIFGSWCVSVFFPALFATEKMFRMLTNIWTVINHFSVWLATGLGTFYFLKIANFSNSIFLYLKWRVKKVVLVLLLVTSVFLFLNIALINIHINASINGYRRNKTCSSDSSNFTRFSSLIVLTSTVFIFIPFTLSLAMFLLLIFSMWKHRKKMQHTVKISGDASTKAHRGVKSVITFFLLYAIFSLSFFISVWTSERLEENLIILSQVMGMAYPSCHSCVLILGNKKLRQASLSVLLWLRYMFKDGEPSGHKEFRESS
Assay: Calcium imaging assay (FLIPR), HEK293T-Gα16gust44 cells transfected with human TAS2R14
Type: cell-based
Conditions: TAS2R14 trace; Time (s) 98.797 (Chenodeoxycholic Acid 98.781)
Give RLU for every item shown.
Quick note: give the figure in RLU, leave out the unit.

# lookup: C[C@H](CCC(=O)NCC(=O)O)[C@H]1CC[C@H]2[C@@H]3[C@H](O)C[C@@H]4C[C@H](O)CC[C@]4(C)[C@H]3C[C@H](O)[C@]12C on human TAS2R14 (Homo sapiens, UniProt Q9NYV8), RLU = 900.527

RLU for human TAS2R14 (Homo sapiens, UniProt Q9NYV8) with input C[C@H](CCC(=O)NCCS(=O)(=O)O)[C@H]1CC[C@H]2[C@@H]3CC[C@@H]4C[C@H](O)CC[C@]4(C)[C@H]3CC[C@]12C equals 326.967

The reported RLU value, human TAS2R14 (Homo sapiens, UniProt Q9NYV8), for C[C@H](CCC(=O)NCCS(=O)(=O)O)[C@H]1CC[C@H]2[C@@H]3[C@H](O)C[C@@H]4C[C@H](O)CC[C@]4(C)[C@H]3C[C@H](O)[C@]12C reads 832.423

Short answer on human TAS2R14 (Homo sapiens, UniProt Q9NYV8) for C[C@H](CCC(=O)O)[C@H]1CC[C@H]2[C@@H]3[C@H](O)C[C@@H]4C[C@H](O)CC[C@]4(C)[C@H]3C[C@H](O)[C@]12C , RLU: 1184.89

Record C[C@H](CCC(=O)O)[C@H]1CC[C@H]2[C@@H]3[C@H](O)C[C@@H]4C[C@H](O)CC[C@]4(C)[C@H]3CC[C@]12C / human TAS2R14 (Homo sapiens, UniProt Q9NYV8), RLU recorded as 628.21
